All values here come from patent US8906952B2.

system: HepG2 cells; assay: DGAT inhibitory effect in HepG2 cells (triglyceride production from [14C]glycerol); type: cell-based; conditions: Homo sapiens, HepG2, 6 h; 10 μM; DMSO control = 100; read-out: Triglyceride production rate (%)/HepG2 cells at 10 μM
MEASUREMENT LABEL: activity at 10 µM

* CC(C)N(NC(=O)c1cccc(O)c1)C(=O)/C=C/c1cn(C(=O)OC(C)(C)C)c2ccccc12 [Example 4] | 86.7%
* CC(C)N(NC(=O)c1cccc(F)c1)C(=O)/C=C/c1cn(C(=O)OC(C)(C)C)c2ccccc12 [Example 15] | 71.2%
* COC(=O)COc1cccc(C(=O)NN(C(=O)/C=C/c2cn(C(=O)OC(C)(C)C)c3ccccc23)C(C)C)c1 [Example 18] | 102%
* Cc1ccc2c(/C=C/C(=O)N(NC(=O)c3cccc(F)c3)C(C)C)cn(C(=O)OC(C)(C)C)c2c1 [Example 37] | 79.2%
* CC(C)N(NC(=O)c1ccccc1)C(=O)/C=C/c1cn(C(=O)OC(C)(C)C)c2ccccc12 [Example 1] | 60.1%
* Cc1ccc2c(c1)c(/C=C/C(=O)N(NC(=O)c1cccc(F)c1)C(C)C)cn2C(=O)OC(C)(C)C [Example 35] | 57.6%
* CC(C)N(NC(=O)c1ccccc1)C(=O)/C=C/c1cn(C(=O)CC(C)(C)C)c2ccccc12 [Example 33] | 78.2%
* COc1cccc(C(=O)NN(C(=O)/C=C/c2cn(C(=O)OC(C)(C)C)c3ccccc23)C(C)C)c1 [Example 6] | 74.8%
* CC(C)=CCn1cc(/C=C/C(=O)N(NC(=O)c2ccccc2)C(C)C)c2ccccc21 [Example 27] | 58.5%
* CC(C)N(NC(=O)c1ccc(Cl)cc1)C(=O)/C=C/c1cn(C(=O)OC(C)(C)C)c2ccccc12 [Example 14] | 84.4%
* CC(C)N(NC(=O)c1cccnc1)C(=O)/C=C/c1cn(C(=O)OC(C)(C)C)c2ccccc12 [Example 3] | 66.8%
* CC(C)N(NC(=O)c1cccc(OCCN2CCOCC2)c1)C(=O)/C=C/c1cn(C(=O)OC(C)(C)C)c2ccccc12 [Example 8] | 85.2%
* CC(C)CCn1cc(/C=C/C(=O)N(NC(=O)c2ccc(F)cc2)C(C)C)c2ccccc21 [Example 46] | 63.5%
* CC(C)N(NC(=O)c1ccccc1)C(=O)/C=C/c1cn(CC2CC2)c2ccccc12 [Example 28] | 64.4%
* CC(C)N(NC(=O)c1cccc(Br)c1)C(=O)/C=C/c1cn(C(=O)OC(C)(C)C)c2ccccc12 [Example 12] | 93.5%
* Cc1ccc(C(=O)NN(C(=O)/C=C/c2cn(C(=O)OC(C)(C)C)c3ccccc23)C(C)C)cc1 [Example 48] | 96.7%
* CC(=O)n1cc(/C=C/C(=O)N(NC(=O)c2ccccc2)C(C)C)c2ccccc21 [Example 30] | 89%

====

Molecular target: hDGAT-1 (HuTu 80) (Homo sapiens, UniProt O75907)
Construct: microsomal protein isolated from human duodenal adenocarcinoma (‘Hutu 80’); endogenous in cells
Sequence (O75907 whole entry): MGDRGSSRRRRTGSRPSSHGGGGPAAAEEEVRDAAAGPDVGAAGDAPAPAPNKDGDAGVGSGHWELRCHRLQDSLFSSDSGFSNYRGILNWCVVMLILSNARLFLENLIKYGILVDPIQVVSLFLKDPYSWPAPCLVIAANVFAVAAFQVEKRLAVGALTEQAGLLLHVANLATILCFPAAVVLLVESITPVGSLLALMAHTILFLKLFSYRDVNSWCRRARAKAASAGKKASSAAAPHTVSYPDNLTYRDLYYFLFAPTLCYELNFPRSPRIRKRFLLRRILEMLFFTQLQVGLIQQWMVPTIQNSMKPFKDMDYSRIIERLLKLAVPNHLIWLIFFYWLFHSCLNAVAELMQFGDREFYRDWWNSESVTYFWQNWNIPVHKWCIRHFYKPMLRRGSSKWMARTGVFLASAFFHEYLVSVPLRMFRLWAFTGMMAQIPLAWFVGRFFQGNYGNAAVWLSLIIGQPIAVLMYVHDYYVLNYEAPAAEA
Test: DGAT enzyme inhibition test, microsomal protein from human duodenal adenocarcinoma (Hutu 80)
Conditions: microsomal protein from HuTu 80
Description: To investigate inhibitory effect of the compounds of Examples 1-33 against DGAT enzyme activity, DGAT enzyme inhibition and DGAT2 selectivity were investigated using zymogen including: 2) DGAT enzyme derived from human duodenal adenocarcinoma (‘Hutu 80’), and […]
MEASUREMENT LABEL: IC50 (µM)

- CC(C)N(NC(=O)c1ccc(O)cc1)C(=O)/C=C/c1cn(C(=O)OC(C)(C)C)c2ccccc12: 6.6
- CC(C)N(NC(=O)c1ccccc1)C(=O)CCc1cn(Cc2ccccc2)c2ccccc12: 29.6
- CC(C)=CCn1cc(/C=C/C(=O)N(NC(=O)c2ccccc2)C(C)C)c2ccccc21: 2.6
- CC(C)N(NC(=O)c1ccccc1)C(=O)/C=C/c1c[nH]c2ccccc12: 44.6
- CC(C)(C)OC(=O)n1cc(/C=C/C(=O)NNC(=O)c2ccccc2)c2ccccc21: 10.7
- CC(=O)n1cc(/C=C/C(=O)N(NC(=O)c2ccccc2)C(C)C)c2ccccc21: 27
- CC(C)N(NC(=O)c1ccccn1)C(=O)/C=C/c1cn(C(=O)OC(C)(C)C)c2ccccc12: 11.2
- CC(C)N(NC(=O)c1ccccc1)C(=O)/C=C/c1cn(C2CC2)c2ccccc12: 4.6
- CC(C)N(NC(=O)c1ccccc1)C(=O)/C=C/c1cn(C(=O)OC(C)(C)C)c2ccccc12: 1.4
- CC(C)N(NC(=O)c1ccccc1)C(=O)/C=C/c1cn(CC2CC2)c2ccccc12: 8.1
- CC(C)N(NC(=O)c1ccccc1)C(=O)/C=C/c1cn(C(=O)c2ccccc2)c2ccccc12: 0.97
- CC(C)N(NC(=O)c1ccccc1)C(=O)CCc1cn(C(=O)OC(C)(C)C)c2ccccc12: 9.2
- CC(C)N(NC(=O)c1ccccc1)C(=O)/C=C/c1cn(C)c2ccccc12: 29.2
- CC(C)N(NC(=O)c1ccc(OCCN2CCOCC2)cc1)C(=O)/C=C/c1cn(C(=O)OC(C)(C)C)c2ccccc12: 19.6
- CC(C)N(NC(=O)c1ccccc1)C(=O)/C=C/c1cn(C(=O)CC(C)(C)C)c2ccccc12: 2.1
- CC(C)N(NC(=O)c1ccccc1)C(=O)/C=C/c1cn(C(=O)C(C)(C)C)c2ccccc12: 5.1
